Test system: A549 cells
Experiment: Cell viability resazurin assay, A549 cells
Type: cell-based, human
Settings: 2 h incubation, 10 µM, ± SD
property-label: viability of A549 cells relative to control (%)
Your answer is read as %, so omit the unit and give the number.

Known results for molecules:
O=C1C=CC(=O)[N-]1.[C-]#[O+].[Fe+2].c1cc[cH-]c1.c1ccc(P(c2ccccc2)c2ccccc2)cc1 | 64.49
O=C1C=CC(=O)[N-]1.[C-]#[O+].[C-]#[O+].[Fe+2].c1cc[cH-]c1 | 63.34
O=C1C=CC(=O)[N-]1.[C-]#[O+].[Fe+2].c1cc[cH-]c1.c1ccc(OP(Oc2ccccc2)Oc2ccccc2)cc1 | 93.75
O=C1C=CC(=O)[N-]1.[C-]#[O+].[Fe+2].c1cc[cH-]c1.c1coc(P(c2ccco2)c2ccco2)c1 | 101.28

# next molecule below
Enquiry: Which measured viability of A549 cells relative to control value corresponds to CCOP(OCC)OCC.O=C1C=CC(=O)[N-]1.[C-]#[O+].[Fe+2].c1cc[cH-]c1 ?
Return: 83.61

###

Tested on: HL-60 cells
Assay: Cell viability resazurin assay, HL-60 cells
Format: cell-based, human
Conditions: 2 h incubation, 1 µM, ± SD
Reported viability of HL-60 cells relative to control by item:
Your answer is read as %, so omit the unit and give the number.

Known results for molecules:
O=C1C=CC(=O)[N-]1.[C-]#[O+].[Fe+2].c1cc[cH-]c1.c1ccc(P(c2ccccc2)c2ccccc2)cc1 | 103.34
O=C1C=CC(=O)[N-]1.[C-]#[O+].[Fe+2].c1cc[cH-]c1.c1coc(P(c2ccco2)c2ccco2)c1 | 106.74
O=C1C=CC(=O)[N-]1.[C-]#[O+].[C-]#[O+].[Fe+2].c1cc[cH-]c1 | 101.06

Enquiry: Lookup: viability of HL-60 cells relative to control / HL-60 cells / O=C1C=CC(=O)[N-]1.[C-]#[O+].[Fe+2].c1cc[cH-]c1.c1ccc(OP(Oc2ccccc2)Oc2ccccc2)cc1
Return: 105.27

Enquiry: Lookup: viability of HL-60 cells relative to control / HL-60 cells / CCOP(OCC)OCC.O=C1C=CC(=O)[N-]1.[C-]#[O+].[Fe+2].c1cc[cH-]c1
Return: 105.44

###

Reported viability of A549 cells relative to control by item:
Tested on: A549 cells
Experiment: Cell viability resazurin assay, A549 cells
Format: cell-based, human
Conditions: 24 h incubation, 250 µM, ± SD
Phrase the answer as number then unit, nothing more needed.

O=C1C=CC(=O)[N-]1.[C-]#[O+].[Fe+2].c1cc[cH-]c1.c1ccc(OP(Oc2ccccc2)Oc2ccccc2)cc1 | 28.61 ± 5.09%
CCOP(OCC)OCC.O=C1C=CC(=O)[N-]1.[C-]#[O+].[Fe+2].c1cc[cH-]c1 | 95.62 ± 13.21%
O=C1C=CC(=O)[N-]1.[C-]#[O+].[Fe+2].c1cc[cH-]c1.c1coc(P(c2ccco2)c2ccco2)c1 | 1.39 ± 0.12%
O=C1C=CC(=O)[N-]1.[C-]#[O+].[C-]#[O+].[Fe+2].c1cc[cH-]c1 | 2.35 ± 0.49%

# next compound below
Enquiry: Which measured viability of A549 cells relative to control value corresponds to O=C1C=CC(=O)[N-]1.[C-]#[O+].[Fe+2].c1cc[cH-]c1.c1ccc(P(c2ccccc2)c2ccccc2)cc1 ?
Return: 90.11 ± 9.87%

###

Tested on: PBM cells
Test: Cell viability resazurin assay, PBM cells
Assay type: cell-based, human
Conditions: 24 h incubation, 10 µM, ± SD
Reported viability of PBM cells relative to control by item:
Your answer is read as %, so omit the unit and give the number.

Known results for compounds:
O=C1C=CC(=O)[N-]1.[C-]#[O+].[C-]#[O+].[Fe+2].c1cc[cH-]c1 [compound 1, CpFe(CO)2(η^1-N-maleimidato)] | 85.39
O=C1C=CC(=O)[N-]1.[C-]#[O+].[Fe+2].c1cc[cH-]c1.c1coc(P(c2ccco2)c2ccco2)c1 [2b, CpFe(CO)(P(Fu)3)(η^1-N-maleimidato)] | 94.94
O=C1C=CC(=O)[N-]1.[C-]#[O+].[Fe+2].c1cc[cH-]c1.c1ccc(P(c2ccccc2)c2ccccc2)cc1 [2a, CpFe(CO)(PPh3)(η^1-N-maleimidato)] | 88.22
CCOP(OCC)OCC.O=C1C=CC(=O)[N-]1.[C-]#[O+].[Fe+2].c1cc[cH-]c1 [3a] | 99.21

Enquiry: Which measured viability of PBM cells relative to control value corresponds to O=C1C=CC(=O)[N-]1.[C-]#[O+].[Fe+2].c1cc[cH-]c1.c1ccc(OP(Oc2ccccc2)Oc2ccccc2)cc1 [3b, CpFe(CO)(P(OPh)3)(η^1-N-maleimidato)] ?
Return: 49.35

###

Reported viability of HL-60 cells relative to control by item:
Tested on: HL-60 cells
Test: Cell viability resazurin assay, HL-60 cells
Type: cell-based, human
Conditions: 2 h incubation, 50 µM, ± SD
Procedure: The A549 (human non-small cell lung cancer) cell line was obtained from the American Type Culture Collection (ATCC) and cultured in Dulbecco's Modified Eagle Medium (DMEM) with 10% fetal bovine serum (FBS), 2 mM L-Glutamine, 25 mM HEPES and penicillin/streptomycin solution (100 U/ml and 100 µg/ml, respectively). […] Firstly, resazurin salt powder was dissolved in sterile 1 × PBS. […] The effects of iron(II) complexes were calculated as the percentage of control fluorescence. […]
Your answer is read as %, so omit the unit and give the number.

CCOP(OCC)OCC.O=C1C=CC(=O)[N-]1.[C-]#[O+].[Fe+2].c1cc[cH-]c1 [3a] | 93.65
O=C1C=CC(=O)[N-]1.[C-]#[O+].[Fe+2].c1cc[cH-]c1.c1ccc(OP(Oc2ccccc2)Oc2ccccc2)cc1 [3b, CpFe(CO)(P(OPh)3)(η^1-N-maleimidato)] | 116.21
O=C1C=CC(=O)[N-]1.[C-]#[O+].[C-]#[O+].[Fe+2].c1cc[cH-]c1 [compound 1, CpFe(CO)2(η^1-N-maleimidato)] | 73.55
O=C1C=CC(=O)[N-]1.[C-]#[O+].[Fe+2].c1cc[cH-]c1.c1coc(P(c2ccco2)c2ccco2)c1 [2b, CpFe(CO)(P(Fu)3)(η^1-N-maleimidato)] | 90.45

# next compound below
Enquiry: Which measured viability of HL-60 cells relative to control value corresponds to O=C1C=CC(=O)[N-]1.[C-]#[O+].[Fe+2].c1cc[cH-]c1.c1ccc(P(c2ccccc2)c2ccccc2)cc1 [2a, CpFe(CO)(PPh3)(η^1-N-maleimidato)] ?
Return: 118.68

###

Tested on: A549 cells
Test: Cell viability resazurin assay, A549 cells
Format: cell-based, human
Conditions: 2 h incubation, 50 µM, ± SD
property-label: viability of A549 cells relative to control (%)
Your answer is read as %, so omit the unit and give the number.

Known results for molecules:
CCOP(OCC)OCC.O=C1C=CC(=O)[N-]1.[C-]#[O+].[Fe+2].c1cc[cH-]c1 [3a] | 82.69
O=C1C=CC(=O)[N-]1.[C-]#[O+].[Fe+2].c1cc[cH-]c1.c1coc(P(c2ccco2)c2ccco2)c1 [2b, CpFe(CO)(P(Fu)3)(η^1-N-maleimidato)] | 123.09
O=C1C=CC(=O)[N-]1.[C-]#[O+].[C-]#[O+].[Fe+2].c1cc[cH-]c1 [compound 1, CpFe(CO)2(η^1-N-maleimidato)] | 41.64
O=C1C=CC(=O)[N-]1.[C-]#[O+].[Fe+2].c1cc[cH-]c1.c1ccc(OP(Oc2ccccc2)Oc2ccccc2)cc1 [3b, CpFe(CO)(P(OPh)3)(η^1-N-maleimidato)] | 104.82

# next molecule below
Enquiry: Which measured viability of A549 cells relative to control value corresponds to O=C1C=CC(=O)[N-]1.[C-]#[O+].[Fe+2].c1cc[cH-]c1.c1ccc(P(c2ccccc2)c2ccccc2)cc1 [2a, CpFe(CO)(PPh3)(η^1-N-maleimidato)] ?
Return: 71.32

###

System: A549 cells
Assay: Cell viability resazurin assay, A549 cells
Format: cell-based, human
Settings: 24 h incubation, 1 µM, ± SD
property-label: viability of A549 cells relative to control (%)
Your answer is read as %, so omit the unit and give the number.

O=C1C=CC(=O)[N-]1.[C-]#[O+].[C-]#[O+].[Fe+2].c1cc[cH-]c1 | 70.02
O=C1C=CC(=O)[N-]1.[C-]#[O+].[Fe+2].c1cc[cH-]c1.c1coc(P(c2ccco2)c2ccco2)c1 | 74.40
CCOP(OCC)OCC.O=C1C=CC(=O)[N-]1.[C-]#[O+].[Fe+2].c1cc[cH-]c1 | 70.97
O=C1C=CC(=O)[N-]1.[C-]#[O+].[Fe+2].c1cc[cH-]c1.c1ccc(P(c2ccccc2)c2ccccc2)cc1 | 63.60

Enquiry: Which measured viability of A549 cells relative to control value corresponds to O=C1C=CC(=O)[N-]1.[C-]#[O+].[Fe+2].c1cc[cH-]c1.c1ccc(OP(Oc2ccccc2)Oc2ccccc2)cc1 ?
Return: 92.49
